Reference source: patent US20190359687A1

Biological target: T1, human glycophorin A on human red blood cells or red blood cell membranes (human, UniProt P02724 20-150)
T1 construct: whole, on cells; also called hRBC; human RBC membranes
T1 sequence (looked up): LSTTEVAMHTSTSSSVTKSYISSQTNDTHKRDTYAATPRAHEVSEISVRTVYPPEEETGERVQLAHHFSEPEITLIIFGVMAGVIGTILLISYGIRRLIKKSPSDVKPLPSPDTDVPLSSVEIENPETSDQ
Experiment: SPR (Biacore), Fab on human RBC membranes; T½ = 0.69/kd
value.kind: Estimated T½ (min)
Write the answer as a number in min, unit excluded.

1. TPP-7793, affinity matured 6C12 Fab (Fab, V domains shown, Tested as Fab) VH: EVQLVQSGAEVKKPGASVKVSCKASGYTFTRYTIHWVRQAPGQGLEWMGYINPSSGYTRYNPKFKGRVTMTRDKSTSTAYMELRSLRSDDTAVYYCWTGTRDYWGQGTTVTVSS VL: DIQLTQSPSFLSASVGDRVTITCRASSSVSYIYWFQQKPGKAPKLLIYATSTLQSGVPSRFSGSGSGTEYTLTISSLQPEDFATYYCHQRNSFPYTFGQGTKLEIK :: 23

Turning now to a further binder:
Recorded result, TPP-7778, affinity matured 6C12 Fab (Fab, V domains shown, Tested as Fab) VH: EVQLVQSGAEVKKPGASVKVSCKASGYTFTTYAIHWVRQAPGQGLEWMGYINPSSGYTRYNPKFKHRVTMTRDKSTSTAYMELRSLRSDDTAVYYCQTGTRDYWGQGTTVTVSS VL: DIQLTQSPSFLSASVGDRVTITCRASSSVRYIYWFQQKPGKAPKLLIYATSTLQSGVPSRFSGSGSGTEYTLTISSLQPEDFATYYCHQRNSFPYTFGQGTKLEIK , Estimated T½: 10
